Source of measurements: ChEMBL document CHEMBL4425133

The next entries give measured Kd for UniProt:P08581.
Sequence (P08581 whole entry): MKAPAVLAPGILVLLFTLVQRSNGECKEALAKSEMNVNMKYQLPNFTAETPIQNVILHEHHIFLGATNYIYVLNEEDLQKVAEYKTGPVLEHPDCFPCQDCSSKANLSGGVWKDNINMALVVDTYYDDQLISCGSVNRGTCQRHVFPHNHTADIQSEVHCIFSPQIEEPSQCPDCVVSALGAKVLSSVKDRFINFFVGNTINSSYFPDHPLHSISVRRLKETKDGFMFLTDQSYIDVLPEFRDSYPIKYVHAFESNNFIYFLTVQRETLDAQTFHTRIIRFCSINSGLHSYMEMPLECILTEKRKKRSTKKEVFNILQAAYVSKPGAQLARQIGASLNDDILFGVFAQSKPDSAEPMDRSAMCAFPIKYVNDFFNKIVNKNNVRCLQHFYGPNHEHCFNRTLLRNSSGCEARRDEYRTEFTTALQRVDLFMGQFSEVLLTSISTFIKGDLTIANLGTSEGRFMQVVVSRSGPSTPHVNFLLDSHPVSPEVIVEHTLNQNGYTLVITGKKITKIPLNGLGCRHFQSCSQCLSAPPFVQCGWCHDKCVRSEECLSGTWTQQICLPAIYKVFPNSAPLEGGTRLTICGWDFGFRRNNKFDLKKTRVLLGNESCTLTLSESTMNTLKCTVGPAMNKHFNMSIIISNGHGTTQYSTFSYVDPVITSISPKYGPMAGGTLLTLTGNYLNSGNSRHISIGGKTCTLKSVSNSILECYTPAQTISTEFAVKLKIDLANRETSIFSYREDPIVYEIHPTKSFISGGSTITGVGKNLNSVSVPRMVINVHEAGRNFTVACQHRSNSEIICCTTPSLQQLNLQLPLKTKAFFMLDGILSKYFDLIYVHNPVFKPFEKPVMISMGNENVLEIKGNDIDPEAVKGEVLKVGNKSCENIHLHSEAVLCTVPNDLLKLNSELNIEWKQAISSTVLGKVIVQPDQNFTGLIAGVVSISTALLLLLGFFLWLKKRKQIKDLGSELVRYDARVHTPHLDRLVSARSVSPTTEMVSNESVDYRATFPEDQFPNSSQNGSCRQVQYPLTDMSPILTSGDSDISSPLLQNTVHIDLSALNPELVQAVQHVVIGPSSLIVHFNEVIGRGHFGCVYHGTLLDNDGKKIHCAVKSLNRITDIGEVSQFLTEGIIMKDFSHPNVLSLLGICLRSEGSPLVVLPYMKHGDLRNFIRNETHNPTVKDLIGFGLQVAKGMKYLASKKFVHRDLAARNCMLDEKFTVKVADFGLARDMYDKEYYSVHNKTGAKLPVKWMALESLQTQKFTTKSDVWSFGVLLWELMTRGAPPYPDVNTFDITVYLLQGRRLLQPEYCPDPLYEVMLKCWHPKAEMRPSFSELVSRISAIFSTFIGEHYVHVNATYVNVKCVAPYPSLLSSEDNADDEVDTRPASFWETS

- smiles-code: "O=C(NCCN1CCOCC1)Nc1nc2ccc(Sc3nnc4ccc(-c5ccc(F)cc5)nn34)cc2s1"
  Kd (nM): 0.9
- smiles-code: "O=C(NCCN1CCOCC1)Nc1nc2ccc(Sc3nnc4ccc(OC5CCCCC5)nn34)cc2s1"
  Kd (nM): 0.6

###

- measured-target: Cytochrome P450 3A4 (Homo sapiens)
- Sequence (P08684 whole entry): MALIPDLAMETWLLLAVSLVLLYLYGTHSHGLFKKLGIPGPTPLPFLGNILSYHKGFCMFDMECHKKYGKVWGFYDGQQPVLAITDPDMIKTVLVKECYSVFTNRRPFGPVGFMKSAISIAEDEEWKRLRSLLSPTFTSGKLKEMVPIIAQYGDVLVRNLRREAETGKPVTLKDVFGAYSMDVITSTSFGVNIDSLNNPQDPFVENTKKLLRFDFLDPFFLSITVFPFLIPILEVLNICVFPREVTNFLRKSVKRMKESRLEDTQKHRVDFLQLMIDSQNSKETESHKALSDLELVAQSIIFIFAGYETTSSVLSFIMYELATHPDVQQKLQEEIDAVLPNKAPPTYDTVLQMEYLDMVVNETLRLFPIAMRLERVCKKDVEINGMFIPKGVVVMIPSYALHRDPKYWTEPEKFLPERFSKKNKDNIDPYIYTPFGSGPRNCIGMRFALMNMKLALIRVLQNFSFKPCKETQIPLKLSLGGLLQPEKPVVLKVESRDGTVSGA
- assay-comment: Mechanism based time dependent inhibition of human recombinant CYP3A4 co-expressed with human P450 reductase and human b5 reductase assessed as reduction in 7-Hydroxyquinoline production using 7-benzyloxyquinoline as substrate and NADPH measured every 3 mins for 15 mins by fluorimetry
- Format: ADME
- run-conditions: recombinant enzyme, 0.25 h

- smiles-code: "O=C(NCCN1CCOCC1)Nc1nc2ccc(Sc3nnc4ccc(OC5CCCCCC5)nn34)cc2s1"
  INH, %/min: -11.6
- smiles-code: "O=C(NCCN1CCOCC1)Nc1nc2ccc(Sc3nnc4ccc(-c5cccc(F)c5)nn34)cc2s1"
  INH, %/min: -8.2
- smiles-code: "O=C(NCCN1CCOCC1)Nc1nc2ccc(Sc3nnc4cccnn34)cc2s1"
  INH, %/min: -2.3
- smiles-code: "O=C(NCCN1CCOCC1)Nc1nc2ccc(Sc3nnc4ccc(Oc5ccccc5)nn34)cc2s1"
  INH, %/min: -12.8
- smiles-code: "O=C(NCCN1CCOCC1)Nc1nc2ccc(Sc3nnc4ccc(NC5CC5)nn34)cc2s1"
  INH, %/min: -3.8
- smiles-code: "O=C(NCCN1CCOCC1)Nc1nc2ccc(Sc3nnc4ccc(OC5CCCC5)nn34)cc2s1"
  INH, %/min: -5.5
- smiles-code: "O=C(NCCN1CCOCC1)Nc1nc2ccc(Sc3nnc4ccc(Oc5cccc(F)c5)nn34)cc2s1"
  INH, %/min: -12.2
